Some sequences, each annotated with its measured total protein half-life in vivo.
experiment: total protein half-life in vivo (active degradation + dilution); higher = more stable protein; conditions: wild type E. coli NCM3722; growth: C-lim chemostat; doubling time 12 h
Give your result in h as a bare value.

Would you please look over these solved cases?
{"residue.sequence": "MDLRRFITLKTVVEEGSFLRASQKLCCTQSTVTFHIQQLEQEFSVQLFEKIGRRMCLTREGKKLLPHIYELTRVMDTLREAAKKESDPDGELRVVSGETLLSYRMPQVLQRFRQRAPKVRLSLQSLNCYVIRDALLNDEADVGVFYRVGNDDALNRRELGEQSLVLVASPQIADVDFTEPGRHNACSFIINEPQCVFRQIFESTLRQRRITVENTIELISIESIKRCVAANIGVSYLPRFAVAKELECGELIELPFGEQSQTITAMCAHHAGKAVSPAMHTFIQCVEESFVAG", "quantity.kind": "total protein half-life in vivo", "assay.value": 8.26}
{"residue.sequence": "MERNVTLDFVRGVAILGILLLNISAFGLPKAAYLNPAWYGAITPRDAWTWAFLDLIGQVKFLTLFALLFGAGLQMLLPRGRRWIQSRLTLLVLLGFIHGLLFWDGDILLAYGLVGLICWRLVRDAPSVKSLFNTGVMLYLVGLGVLLLLGLISDSQTSRAWTPDASAILYEKYWKLHGGVEAISNRADGVGNSLLALGAQYGWQLAGMMLIGAALMRSGWLKGQFSLRHYRRTGFVLVAIGVTINLPAIALQWQLDWAYRWCAFLLQMPRELSAPFQAIGYASLFYGFWPQLSRFKLVLAIACVGRMALTNYLLQTLICTTLFYHLGLFMHFDRLELLAFVIPVWLANILFSVIWLRYFRQGPVEWLWRQLTLRAAGPAISKTSR", "quantity.kind": "total protein half-life in vivo", "assay.value": 10.3}

Let's switch to this sequence now.
Would you kindly share the measured total protein half-life in vivo for MKTETPSVKIVAITADEAGQRIDNFLRTQLKGVPKSMIYRILRKGEVRVNKKRIKPEYKLEAGDEVRIPPVRVAEREEEAVSPHLQKVAALADVILYEDDHILVLNKPSGTAVHGGSGLSFGVIEGLRALRPEARFLELVHRLDRDTSGVLLVAKKRSALRSLHEQLREKGMQKDYLALVRGQWQSHVKSVQAPLLKNILQSGERIVRVSQEGKPSETRFKVEERYAFATLVRCSPVTGRTHQIRVHTQYAGHPIAFDDRYGDREFDRQLTEAGTGLNRLFLHAAALKFTHPGTGEVMRIEAPMDEGLKRCLQKLRNAR [P0AA39] ?
9.77
